Task for the reader: assign each of the following binders its reported Kd.
Target: T1, human TREM2 expressed on cells (human, UniProt Q9NZC2 19-230)
T1 construct: BW5147.G.1.4 cells stably expressing human TREM2 together with Dap12, or endogenous TREM2 of primary human myeloid cells; also called huT2 BW; hTREM2 expressing cell line
T1 sequence: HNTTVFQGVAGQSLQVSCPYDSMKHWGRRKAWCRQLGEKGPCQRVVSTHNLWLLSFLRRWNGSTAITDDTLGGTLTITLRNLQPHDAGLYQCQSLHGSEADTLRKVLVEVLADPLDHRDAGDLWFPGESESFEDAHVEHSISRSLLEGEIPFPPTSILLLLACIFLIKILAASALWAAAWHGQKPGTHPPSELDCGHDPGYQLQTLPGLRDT
Assay: FACS, hTREM2 BW cells
Give bare numbers, in nM.

Some solved entries appear below for comparison.
>  <binder>
AL2p-6 (antibody, V domains shown, AL2p-h50 variant; Fab and IgG formats under one id) VH: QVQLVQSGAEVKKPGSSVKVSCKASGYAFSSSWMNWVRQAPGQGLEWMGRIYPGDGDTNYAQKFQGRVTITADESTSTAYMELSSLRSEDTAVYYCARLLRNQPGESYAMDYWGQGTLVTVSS VL: DVVMTQTPLSLSVTPGQPASISCRSSQSLVHSNWYTYLHWYLQKPGQSPQLLIYKVSNRFSGVPDRFSGSGSGTDFTLKISRVEAEDVGVYYCSQSTRVPYTFGQGTKLEIK

>  <endpoint_unit>
nM

>  <number>
4.2

$$$$
>  <binder>
AL2p-5 (antibody, V domains shown, AL2p-h50 variant; Fab and IgG formats under one id; also called AL2-5) VH: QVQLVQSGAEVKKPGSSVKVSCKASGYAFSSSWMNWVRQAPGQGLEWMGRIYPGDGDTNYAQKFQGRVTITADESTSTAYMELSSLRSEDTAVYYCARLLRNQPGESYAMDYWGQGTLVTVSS VL: DVVMTQTPLSLSVTPGQPASISCRSSQSLVHSNRYTYLHWYLQKPGQSPQLLIYKVSNRFSGVPDRFSGSGSGTDFTLKISRVEAEDVGVYYCSQSTRVPYTFGQGTKLEIK

>  <endpoint_unit>
nM

>  <number>
2

$$$$
>  <binder>
AL2p-54 (antibody, V domains shown, Fab and IgG formats under one id) VH: QVQLVQSGAEVKKPGSSVKVSCKASGYAFSSHWMNWVRQAPGQGLEWMGRIYPGEGDTNYAQKFHGRVTITADESTSTAYMELSSLRSEDTAVYYCARLLRNKPGESYAMDYWGQGTLVTVSS VL: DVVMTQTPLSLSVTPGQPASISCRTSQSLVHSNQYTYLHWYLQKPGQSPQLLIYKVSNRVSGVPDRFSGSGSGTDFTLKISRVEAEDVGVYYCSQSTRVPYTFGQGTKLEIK

>  <endpoint_unit>
nM

>  <number>
2.3

$$$$
>  <binder>
AL2p-35 (antibody, V domains shown, Fab and IgG formats under one id) VH: QVQLVQSGAEVKKPGASVKVSCKASGYAFWSSWMNWVRQAPGQRLEWIGRIYPGDGDTNYAQKFQGRVTITADTSASTAYMELSSLRSEDTAVYYCARLLRNQPGESYAHDYWGQGTLVTVSS VL: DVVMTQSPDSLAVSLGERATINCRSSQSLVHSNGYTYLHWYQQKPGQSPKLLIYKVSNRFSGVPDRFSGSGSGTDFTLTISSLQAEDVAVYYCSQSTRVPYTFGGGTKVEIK

>  <endpoint_unit>
nM

>  <number>
3.6

$$$$
>  <binder>
AL2p-28 (antibody, V domains shown, Fab and IgG formats under one id) VH: QVQLVQSGAEVKKPGSSVKVSCKASGYAFSSHWMNWVRQAPGQGLEWMGRIYPGVGDTNYAQKFQGRVTITADESTSTAYMELSSLRSEDTAVYYCARLLRNQPGESYAMDYWGQGTLVTVSS VL: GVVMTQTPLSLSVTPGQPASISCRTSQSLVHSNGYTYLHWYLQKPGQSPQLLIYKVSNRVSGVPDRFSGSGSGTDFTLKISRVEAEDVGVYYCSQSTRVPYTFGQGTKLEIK

>  <endpoint_unit>
nM

>  <number>
2.2

$$$$
>  <binder>
AL2p-19 (antibody, V domains shown, Fab and IgG formats under one id) VH: QVQLVQSGAEVKKPGSSVKVSCKASGYAFSSHWMNWVRQAPGQGLEWMGRIYPGDGDTNYARKFQGRVTITADESTSTAYMELSSLRSEDTAVYYCARLLRNQPGESYAMDYWGQGTLVTVSS VL: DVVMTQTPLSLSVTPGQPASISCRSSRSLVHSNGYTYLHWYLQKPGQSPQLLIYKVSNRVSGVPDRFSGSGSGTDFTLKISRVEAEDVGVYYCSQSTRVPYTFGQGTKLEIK

>  <endpoint_unit>
nM

>  <number>
1.4

$$$$
>  <binder>
AL2p-26 (antibody, V domains shown, Fab and IgG formats under one id) VH: QVQLVQSGAEVKKPGSSVKVSCKASGYAFSSHWMNWVRQAPGQGLEWMGRIYPGGGDTNYAQKRQGRVTITADESTSTAYMELSSLRSEDTAVYYCARLLRNQPGESYAMDYWGQGTLVTVSS VL: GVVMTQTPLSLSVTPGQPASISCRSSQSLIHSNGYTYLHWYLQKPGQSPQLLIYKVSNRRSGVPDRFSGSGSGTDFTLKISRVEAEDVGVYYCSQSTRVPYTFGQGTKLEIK

>  <endpoint_unit>
nM

>  <number>
1.1

$$$$
>  <binder>
AL2p-40 (antibody, IgG1, V domains shown, Fab and IgG formats under one id) VH: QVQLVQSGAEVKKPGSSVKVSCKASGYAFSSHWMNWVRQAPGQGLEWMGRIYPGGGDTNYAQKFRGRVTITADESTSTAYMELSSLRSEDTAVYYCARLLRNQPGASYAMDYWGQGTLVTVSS VL: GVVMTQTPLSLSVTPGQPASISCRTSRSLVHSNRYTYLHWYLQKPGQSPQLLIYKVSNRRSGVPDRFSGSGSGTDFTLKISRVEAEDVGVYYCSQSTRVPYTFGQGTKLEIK

>  <endpoint_unit>
nM

>  <number>
2.27

$$$$
>  <binder>
AL2p-22 (antibody, V domains shown, Fab and IgG formats under one id) VH: QVQLVQSGAEVKKPGSSVKVSCKASGYAFSSHWMNWVRQAPGQGLEWMGRIYPGDGDTNYAYKFQGRVTITADESTSTAYMELSSLRSEDTAVYYCARLLRNQPGESYAMDYWGQGTLVTVSS VL: GVVMTQTPLSLSVTPGQPASISCRSSRSLVHSNGYTYLHWYLQKPGQSPQLLIYKVSNRRSGVPDRFSGSGSGTDFTLKISRVEAEDVGVYYCSQSTRVPYTFGQGTKLEIK

>  <endpoint_unit>
nM

>  <number>
1.5

$$$$

stdin: // lookup Kd for AL2p-45 (antibody, V domains shown, Fab and IgG formats under one id) VH: QVQLVQSGAEVKKPGSSVKVSCKASGYAFSSDWMNWVRQAPGQGLEWMGRIYPGEGDTNYARKFQGRVTITADESTSTAYMELSSLRSEDTAVYYCARLLRNKPGESYAMDYWGQGTLVTVSS VL: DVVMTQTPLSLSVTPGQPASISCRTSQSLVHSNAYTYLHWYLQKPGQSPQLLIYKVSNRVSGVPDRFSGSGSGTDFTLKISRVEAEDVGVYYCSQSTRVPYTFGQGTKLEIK
stdout: 1.54
